Measured values drawn from the supplement of paper PMC11865577 for this set.

test system: TO-N3-2 (biotin conjugate); assay: pull-down binding Z-score (relative to library population); higher = stronger binding; conditions: RNA library: Library-2
Classify as follows. Reported pull-down binding Z-score greater than or equal to 0.3: yes. Reported pull-down binding Z-score below: no.

GAGUGCUAUCUAACCUUAACUUGCCUGGUUGUGAUGGUGGCAGUUUGUAUGUAAAUAAACAUGCAUUCCACACACCAGCUUUUGAUAAAAGUGCUU [DMSMaPseq_invitro_SARS-CoV-2_Motif_343] :: no
CACUCAAAGGCGGUGCACCAACAAAGGUUACUUUUGGUGAUGACACUGUGAUAGAAGUG [DMSMaPseq_invitro_SARS-CoV-2_Motif_50] :: no
UUCUCUUUAUUUAUGAUGAA [hsa-mir-494] :: no
UAUAACAAUACUAGAUGGAAUUUCACAGUAUUCACUGAGACUCAUUGAUGCUAUGAUGUUCACAUCUGAUUUGGCUACUAACAAUCUAGUUGUA :: no
AGUCAGACAAAUCGCUCCAGGGCAAACUGGAAAGAUUGCUGAUU :: no
CUUCCUGAGCACGCUCAUGAUGAGCAAACUGAGCCUCUAAG [hsa-mir-3653] :: yes

Hi team, for CAGACUCUG [hsa-mir-4326] , is the recorded pull-down binding Z-score at or above 0.3?
no

Is it the case that GACAUCCCUCAUCUGUUUCUCACUGGUGUC [hsa-mir-6830] has pull-down binding Z-score reaching or exceeding 0.3?
no

Does the sequence AAUCAUACAUCACCAGAUGUUGAUU [SHAPE_invitro_SARS-CoV-2_Motif_454] have recorded pull-down binding Z-score that is 0.3 or more?
no

Answer whether pull-down binding Z-score of GUUCUUCUUCGUAAGAAC is greater than or equal to 0.3.
no

Kindly determine if pull-down binding Z-score recorded for AGGCUCUGGGUCCGGCUUACUCCCUAGCUUACUGUCCUCAGAACCC [hsa-mir-6071] is above or exactly 0.3.
yes

Does pull-down binding Z-score meet or surpass 0.3 for AAUUGGCUUUUACAAAAGACCAACU [hsa-mir-4798] ?
no

Record CUGUAGCUGCAUUUCACCAAGAAUGUAGUUUACAG [DMSMaPseq_invitro_SARS-CoV-2_Motif_500] ; criterion: pull-down binding Z-score no lower than 0.3. Met?
no

For this sequence, is measured pull-down binding Z-score 0.3 or higher? GGGACGUGUGAUGCUGUGCUUCCU [hsa-mir-3689f]
yes

Check the entry CUACAAAGCAACCAUGAUCUGUAUUGUCAAGUCCAUGGUAAUGCACAUGUAG : does pull-down binding Z-score equal or exceed 0.3?
yes
